The reported numbers originate from ChEMBL document CHEMBL5344477.

# assay.comment: Volume of distribution at steady state in Sprague-Dawley rat at 0.5 mg/kg, iv measured upto 24 hrs by LC-MS/MS analysis
# Type: ADME, organism-based
# study.conditions: in vivo, read-out: Vdss
readout.kind: Vd (L/kg)

Would you please look over these solved cases?
compound.string: O=C1CCc2cc(F)c(C(=O)Nc3cccc(-c4nncn4C4CC4)n3)cc2N1
display.unit: L/kg
Vd: 0.96
//
compound.string: CC(C)n1cnnc1-c1cccc(NC(=O)c2cc3c(cc2F)OC(C)(C)C(=O)N3)n1
display.unit: L/kg
Vd: 1.35

a = CC(C)n1cnnc1-c1cccc(NC(=O)c2cc3c(cc2F)OC(C)(C)C(=O)N3C)n1
b = O=C1COc2cc(F)c(C(=O)Nc3cccc(-c4nncn4C4CC4)n3)cc2N1
# returns the entry with the larger Vd; inputs a and b Response format: the label of the selected entry.
a
